From: patent US20160272707A1

# TARGET_SYSTEM: T1, mouse VSTM5 (SEQ ID NO:11) expressed on HEK-293T cells (mouse, UniProt Q9D806 28-199)
# T1 construct: also called mouse VSTM5 untagged
# T1 sequence: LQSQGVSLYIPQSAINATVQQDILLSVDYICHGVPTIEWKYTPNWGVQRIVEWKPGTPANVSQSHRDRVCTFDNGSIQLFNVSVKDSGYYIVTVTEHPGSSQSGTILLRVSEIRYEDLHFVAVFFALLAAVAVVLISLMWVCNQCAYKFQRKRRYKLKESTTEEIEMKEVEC
# TEST_PROTOCOL: FACS titration on 293-muVSTM5 cells, panel 'Ab binding vs. mouse VSTM5'

{"columns": ["BINDER", "binding result"],
 "data": [
  ["50-01.A04 (antibody, V domains shown) VH: QVQLVQSGAEVKKPGESLKISCKGSGYDFNNYWIGWVRQTPEKGLEWMGIVYPGDHPGDYHIRYGPSFQGQVTISADRSITTAYLQWRNLKASDTAMYYCARLGSSKDLDYWGQGTLVTVSS VL: EIVLTQSPATLSLSPGERATLSCRASQSVSGHLDWYQQKPGQSPRLLIYDASNRATGIPARFSGSGSGTDFSLTISSLEPEDFAVYYCQHRSNWPWTFGQGTKVEIKR", "no binding"],
  ["49-01.D06 (antibody, V domains shown) VH: QVQLVQSGAEVKKPGTSVKVSCKASGYTFTTYTMHWVRQAPGQRLEWMGWINTGNGNTKYSQKFQDRVTITRDTSASTAYMELSSLKFEDTAVYYCAREGVTIFGDHSYYYGMDVWGQGTTVTVSS VL: QPVLTQSSSASASLGSSVKLTCTLSSGHSSYIIAWHQQQPGKAPRYLMKLEGSGSYNKGSGLPDRFSGSSSGADRYLTISNLQSEDEADYYCETWDGNTWVFGGGTQLTVLG", "no binding"],
  ["52-01.A07 (antibody, V domains shown) VH: EVQLVESGGGLVQPGRSLRLSCAASGFTFSSYAMHWVRQAPGKGLEWVAVISYDGSNKYYADSVKGRFTISRDNSKNTLYLQMNSLRAEDTAVYYCASKRELHSFDYWGQGTLVTVSS VL: DVVMTQSPLSLPVTPGEPASISCRSSQSLLQSNGHNYLNWYLQKPGQSPQVLIYLASNRASGVPDRFSGSGSGTDFTLKISRVEAEDVGIYYCMQGLQIPLTFGGGTKVEIKR", "no binding"]
]}
